Values compiled from ChEMBL document CHEMBL1201862.

- System: OVCAR-8
- method_description: NCI tumour cell line growth inhibition, 48 h
Activity calls are given as the source filed them. Rule as the data show it: active = GI50 up to about 1.1 µM and inactive = higher.
Parameter call: string, one of active, inactive

Lookup: Could you please tell me the result logged for Nc1nc(N)c2c(Cl)c(CNc3ccc(C(=O)NC(CC(=O)O)C(=O)O)cc3)ccc2n1 (stereo not given) in this assay?
Found: active

Lookup: Could you please tell me the result logged for `COc1cc([N+](=O)[O-])c(S(=O)(=O)O)cc1-n1nc(-c2ccccc2)n[n+]1-c1cc(S(=O)(=O)[O-])c([N+](=O)[O-])cc1OC` in this assay?
Found: inactive

Lookup: Could you please tell me the result logged for `CCCCCCCCCCCC[C@H](O)[C@H]1CC[C@H]([C@H](O)CCCC[C@H](O)CCCCC[C@@H](O)CC2=C[C@H](C)OC2=O)O1` in this assay?
Found: inactive
